Consider the following compounds; for each one, report its Potency.
Experiment: Cell Viability - Hek293 (AID 427);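 further: potency means the concentration at half of the fitted maximal effect; cells exposed to compound for 40 hours at 37 °C before reading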
Details: qHTS
Records with an inconclusive call do not appear. Active and inactive are the calls of the source.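 How the source made its calls: active means compounds whose dose-response curve shows a full or clear partial loss of cell viability, called from curve shape rather than a numeric limit; inconclusive means weak partial curves or an effect only at the top dose; inactive means no dose-dependent loss of viability.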

Data request: Tell me Potency reported for CCNc1ccccc1
Data returned: > 92 µM (inactive)

Data request: Tell me Potency reported for Cc1cccc(C)c1
Data returned: > 92 µM (inactive)

Data request: Tell me Potency reported for CCC(C)O (configuration not stated)
Data returned: > 92 µM (inactive)

Data request: Tell me Potency reported for OC1CCCC1
Data returned: > 92 µM (inactive)

Data request: Tell me Potency reported for N#CC1(O)CCCCC1
Data returned: > 92 µM (inactive)

Data request: Tell me Potency reported for O=c1[nH][nH]c(=O)c2cc([N+](=O)[O-])ccc12
Data returned: > 92 µM (inactive)

Data request: Tell me Potency reported for Cc1ccc(CO)cc1
Data returned: > 92 µM (inactive)

Data request: Tell me Potency reported for CCOC(=O)C(C)C(C)=O (configuration not stated)
Data returned: > 92 µM (inactive)

Data request: Tell me Potency reported for C=C(C)C1CC=C(C)C(OC(C)=O)C1 (configuration not stated)
Data returned: > 92 µM (inactive)

Data request: Tell me Potency reported for OCCO
Data returned: > 92 µM (inactive)

Data request: Tell me Potency reported for Fc1ccccc1
Data returned: > 92 µM (inactive)

Data request: Tell me Potency reported for CCCCOCCOCCOCCCC
Data returned: > 92 µM (inactive)

Data request: Tell me Potency reported for COCCOC(=O)c1ccccc1C(=O)OCCOC
Data returned: > 92 µM (inactive)

Data request: Tell me Potency reported for O=[N+]([O-])c1c(Cl)cc(Cl)cc1Cl
Data returned: > 92 µM (inactive)

Data request: Tell me Potency reported for C=Cc1ccccc1C=C
Data returned: > 92 µM (inactive)

Data request: Tell me Potency reported for O=C1OC(=O)c2c(Br)c(Br)c(Br)c(Br)c21
Data returned: > 92 µM (inactive)

Data request: Tell me Potency reported for CCCCCCCCC/C=C/CC1CC(=O)OC1=O (configuration not stated)
Data returned: > 92 µM (inactive)
